assay: LDH cell viability assay, normal prostate epithelial cells; assay type: cell-based, human; details: human, PNT2 normal prostate epithelial cells; PNT2, 3 µg/mL, 24 h; read-out: Cell Viability (%) ± SD
OBSERVATION TYPE: viability at 24 h, 3 µg/mL (%)

# COMPOUND, OBSERVATION TYPE, NUMBER
data = [
    ("C=C1C(=O)O[C@H]2[C@H]1[C@@H](O)[C@H](OC(=O)CC(C)C)[C@H](C)CCC(=O)[C@](C)(O)[C@@H]2OC(=O)C(C)C [Compound 3]", "viability at 24 h, 3 µg/mL", 77.2),
]

* * *

experiment: LDH cell viability assay, keratinocytes; assay type: cell-based, human; conditions: human, HaCaT keratinocytes, 50 µg/mL, read-out: Cell Viability (%) ± SD
OBSERVATION TYPE: viability at 24 h, 50 µg/mL (%)

# SMILES REPR, UNIT OF MEASURE, NUMBER
measured = [
    ("C=C1C(=O)O[C@H]2[C@H]1[C@@H](O)[C@H](OC(=O)CC(C)C)[C@H](C)CCC(=O)[C@](C)(O)[C@@H]2OC(=O)C(C)C", "%", 0),
]
